Source of measurements: patent US20230250095A1

Target: CYP2C19 (Homo sapiens, UniProt P33261)
Construct: 150-donor pooled human liver microsomes (purchased from Corning, Cat. No. 452117); tissue Corning 452117; host or cells: 150-donor pooled human liver microsomes
Sequence (P33261 whole entry): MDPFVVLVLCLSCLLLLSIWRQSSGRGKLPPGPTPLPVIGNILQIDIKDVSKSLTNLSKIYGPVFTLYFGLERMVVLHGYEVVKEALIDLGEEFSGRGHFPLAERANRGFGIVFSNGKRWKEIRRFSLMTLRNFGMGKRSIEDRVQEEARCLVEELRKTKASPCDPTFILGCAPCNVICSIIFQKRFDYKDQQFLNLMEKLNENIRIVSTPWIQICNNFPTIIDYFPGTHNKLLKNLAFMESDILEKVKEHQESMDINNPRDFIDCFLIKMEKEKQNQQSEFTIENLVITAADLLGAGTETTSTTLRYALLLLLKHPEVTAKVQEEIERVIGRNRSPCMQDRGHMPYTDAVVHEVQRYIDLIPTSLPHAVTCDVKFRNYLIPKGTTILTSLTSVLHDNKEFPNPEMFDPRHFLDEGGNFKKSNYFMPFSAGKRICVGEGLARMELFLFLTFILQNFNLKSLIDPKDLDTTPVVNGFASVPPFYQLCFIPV
Test: CYP inhibition assay in pooled human liver microsomes (S-mephenytoin)
Type: in vitro ADME
Details: human liver microsomes 0.2 mg/mL, substrate S-mephenytoin; read-out: CYP 2C19 (μM) IC50
Reported values of IC50 for individual entries

// solved cases for IC50 follow
CC(=O)N1CCO[C@@H](Cn2c(-c3ccc(N4CCCC4=O)cc3Cl)nc3cc(C)ccc32)C1 : > 30 µM
CC(=O)N1CCOC(Cn2c(-c3c(F)cc(N4CCCC4=O)cc3F)nc3cc(C)ccc32)C1 (stereo in doubt) : 13 µM
CC(=O)N1CCO[C@@H](Cn2c(-c3c(F)cc(N4CCCC4=O)cc3Cl)nc3cc(C)ccc32)C1 : > 30 µM
[2H]C([2H])([2H])c1ccc2c(c1)nc(-c1c(F)cc(N3CCCC3=O)cc1F)n2C[C@H]1CN(C(C)=O)CCO1 : > 30 µM
CC(=O)N1CCO[C@@H](Cn2c(-c3c(F)cc(N4CCCC4=O)cc3F)nc3cc(Cl)ccc32)C1 : > 30 µM

Lab note: measured IC50 of COC(=O)N1CCOC(Cn2c(-c3c(F)cc(N4CCCC4=O)cc3F)nc3cc(C)ccc32)C1 (stereo not drawn) was 14.6 µM

###

Target: hP2X2/3 (Homo sapiens, UniProt P56373+Q9UBL9)
Sequence (Q9UBL9 1-471): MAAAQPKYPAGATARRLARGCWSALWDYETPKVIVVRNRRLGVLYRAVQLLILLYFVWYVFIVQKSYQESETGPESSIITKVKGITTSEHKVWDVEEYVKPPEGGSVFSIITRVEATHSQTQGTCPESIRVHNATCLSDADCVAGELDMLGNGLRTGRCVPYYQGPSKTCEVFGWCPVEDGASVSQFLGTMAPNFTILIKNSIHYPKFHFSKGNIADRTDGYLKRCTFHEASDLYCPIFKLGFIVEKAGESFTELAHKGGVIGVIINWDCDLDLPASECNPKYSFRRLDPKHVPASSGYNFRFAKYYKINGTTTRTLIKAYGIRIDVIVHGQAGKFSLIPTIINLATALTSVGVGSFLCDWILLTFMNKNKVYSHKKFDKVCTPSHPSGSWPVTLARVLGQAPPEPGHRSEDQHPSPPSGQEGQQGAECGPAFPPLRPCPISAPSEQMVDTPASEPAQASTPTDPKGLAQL
Sequence (P56373 1-397): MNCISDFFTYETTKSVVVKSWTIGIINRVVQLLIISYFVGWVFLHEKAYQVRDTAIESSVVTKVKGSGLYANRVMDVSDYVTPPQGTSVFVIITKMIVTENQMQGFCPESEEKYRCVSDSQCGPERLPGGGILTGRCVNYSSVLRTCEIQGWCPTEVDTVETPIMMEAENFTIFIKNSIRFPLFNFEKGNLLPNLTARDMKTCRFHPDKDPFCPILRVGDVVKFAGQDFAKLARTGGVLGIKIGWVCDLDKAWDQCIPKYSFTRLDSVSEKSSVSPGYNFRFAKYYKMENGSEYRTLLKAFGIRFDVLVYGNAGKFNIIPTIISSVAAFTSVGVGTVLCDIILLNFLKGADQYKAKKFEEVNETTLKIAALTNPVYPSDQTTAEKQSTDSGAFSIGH
Assay: FLIPR calcium flux assay, antagonistic activity against hP2X2/3 receptor
Details: 1321N1/hP2X2/3 cells, agonist α,β-meATP 1000 nM
readout-name: IC50 (µM)

Answered examples (3):
CC(=O)N1CCO[C@@H](Cn2c(-c3c(F)cc(N4CCCC4=O)cc3Cl)nc3cc(C)ccc32)C1 [Compound 4] : 1.93
COC(=O)N1CCO[C@@H](Cc2c(-c3c(F)cc(N4CCCC4=O)cc3F)nc3cc(C)ccn23)C1 [Compound 9] : 30.3
CC(=O)N1CCO[C@@H](Cn2c(-c3c(F)cc(N4CCCC4=O)cc3F)nc3cc(Cl)ccc32)C1 [Compound 10] : 7.41

I = CC(=O)N1CCOC(Cn2c(-c3c(F)cc(N4CCCC4=O)cc3F)nc3cc(C)ccc32)C1 (stereo in doubt) [Compound 1]
II = COC(=O)N1CCOC(Cn2c(-c3c(F)cc(N4CCCC4=O)cc3F)nc3cc(C)ccc32)C1 (stereo not shown) [Compound 2]
III = CC(=O)N1CCO[C@@H](Cn2c(-c3ccc(N4CCCC4=O)cc3Cl)nc3cc(C)ccc32)C1 [Compound 3]
IV = CCC(=O)N1CCO[C@@H](Cn2c(-c3c(Cl)cc4c(c3F)OCC(=O)N4)nc3cc(C)ccc32)C1 [Compound 17]
Req: Order the records so the highest IC50 appears first and the lowest last. Answer by naming the labels in the order asked.
Resp: II, I, IV, III

###

Experiment: Caco-2 permeability assay
Format: in vitro ADME
Settings: human; Caco-2, 10 μM test compound, apical to basal, pH 7.4
readout-name: Papp A→B at 10 μM (×10⁻⁶ cm/s)

a = CC(=O)N1CCO[C@@H](Cn2c(-c3c(F)cc(N4CCCC4=O)cc3Cl)nc3cc(C)ccc32)C1 [Compound 4]
b = CNC(=O)c1cc(F)c(-c2nc3cc(C)ccn3c2C[C@H]2CN(C(=O)OC)CCO2)c(F)c1 [BLU-5937, reference compound]
Req: Of a and b , which one carries the higher reported Papp A→B at 10 μM? // respond with label for picked entry
Resp: a
(a: 8.1 ×10⁻⁶ cm/s, b: 2.4 ×10⁻⁶ cm/s)

###

Experiment: In vivo pharmacokinetic experiment in rats, intragastric administration
Settings: male, rat, plasma, po, SD rats, 5 mg/kg
readout-name: half-life (h)

a = CNC(=O)c1cc(F)c(-c2nc3cc(C)ccn3c2C[C@H]2CN(C(=O)OC)CCO2)c(F)c1 [BLU-5937, reference compound]
b = CC(=O)N1CCO[C@@H](Cn2c(-c3c(F)cc(N4CCCC4=O)cc3Cl)nc3cc(C)ccc32)C1
Req: Sorting ascending by half-life, which comes first: a or b ? Give the label of your selection.
Resp: b

###

Target: hP2X3 (Homo sapiens)
Assay: FLIPR calcium flux assay, antagonistic activity against hP2X3 receptor
Details: 1321N1/hP2X3 cells, agonist α,β-meATP 500 nM
Text: The compounds were screened for antagonistic activity against hP2X3 and hP2X2/3 receptors (changes in calcium flux signals represent the effect of the compounds on ion channels) by an FLIPR assay. 1321N1 cells (adherent cells) stably transfected with hP2X3 and hP2X2/3 receptors were digested, centrifuged, resuspended in a plating medium (DMEM+10% DFBS) and counted, adjusted to 2×10^5 cells/mL. […]
readout-name: IC50 (nM)

COC(=O)N1CCO[C@@H](Cc2c(-c3c(F)cc(N4CCCC4=O)cc3F)nc3cc(C)ccn23)C1 : 75.8

I = CCC(=O)N1CCO[C@@H](Cn2c(-c3c(Cl)cc4c(c3F)OCC(=O)N4)nc3cc(C)ccc32)C1
II = COC(=O)N1CCOC(Cn2c(-c3c(F)cc(N4CCCC4=O)cc3F)nc3cc(C)ccc32)C1 (stereo not drawn)
Req: Which of the two items, I and II , has the greater recorded IC50? Answer with the label corresponding to your selection.
Resp: II
(II: 105 nM, I: 45.3 nM)

###

Target: CYP2C19 (Homo sapiens)
Construct: 150-donor pooled human liver microsomes (purchased from Corning, Cat. No. 452117); tissue Corning 452117; host or cells: 150-donor pooled human liver microsomes
Experiment: CYP inhibition assay in pooled human liver microsomes (S-mephenytoin)
Type: in vitro ADME
readout-name: IC50 (µM)
Reply numerically in µM, unit not repeated.

Reported IC50 for `COC(=O)N1CCO[C@@H](Cc2c(-c3c(F)cc(N4CCCC4=O)cc3F)nc3cc(C)ccn23)C1` was 12.9

###

Molecular target: hP2X3 (Homo sapiens, UniProt P56373)
Construct: host or cells: 1321N1 cells
Assay: FLIPR calcium flux assay, antagonistic activity against hP2X3 receptor
Format: cell-based
Conditions: 1321N1/hP2X3 cells, agonist α,β-meATP 500 nM
pIC50: −log10 of the molar value.
readout-name: pIC50

CC(=O)N1CCO[C@@H](Cn2c(-c3c(F)cc(N4CCCC4=O)cc3Cl)nc3cc(C)c(F)cc32)C1 : 7.10
[2H]C([2H])([2H])c1ccc2c(c1)nc(-c1c(F)cc(N3CCCC3=O)cc1F)n2C[C@H]1CN(C(C)=O)CCO1 : 7.48
CC(=O)N1CCOC(Cn2c(-c3c(F)cc(N4CCCC4=O)cc3F)nc3cc(C)ccc32)C1 (stereo in doubt) : 7.43
Cc1ccc2c(c1)nc(-c1c(F)cc(N3CCCC3=O)cc1Cl)n2C[C@H]1CN(C(=O)C2CC2)CCO1 : 7.07

A = CC(=O)N1CCO[C@@H](Cn2c(-c3c(F)cc(N4CCCC4=O)cc3Cl)nc3cc(C)ccc32)C1
B = CC(=O)N1CCO[C@@H](Cn2c(-c3c(F)cc(N4CCCC4=O)cc3F)nc3cc(Cl)ccc32)C1
Req: Please compare: A and B . Report which one has the smaller pIC50 value. Answer by stating the label of the chosen item.
Resp: B
(B: 7.27, A: 7.50)
